All figures here come from ChEMBL document CHEMBL5500384.

MIC values by entry
- System: Mycobacterium tuberculosis
- experiment_notes: Antitubercular activity against multidrug resistant Mycobacterium tuberculosis BLG3381 incubated for 5 days by microtiter plate method
- Format: functional
- experimental_conditions: BLG3381, 120 h, time 5 day
Number in µM, nothing else.

Here are 3 compounds together with their reported answers.
So for CCOc1cc(C2C(Cl)C(=O)N2C2=C(Cl)C(=O)c3ccccc3C2=O)ccc1O (stereo not given) , the logged MIC turned out to be 28.9

So for NC1=C(Cl)C(=O)c2ccccc2C1=O , the logged MIC turned out to be 15.1

So for COc1ccc(C2C(Cl)C(=O)N2C2=C(Cl)C(=O)c3ccccc3C2=O)cc1 (stereo not given) , the logged MIC turned out to be 15.5

***
So for CN(C)c1ccc(C2C(Cl)C(=O)N2C2=C(Cl)C(=O)c3ccccc3C2=O)cc1 (stereo not given) , the logged MIC turned out to be 30.1
